assayTarget: IDH2-R140Q mutant enzyme (Homo sapiens, UniProt P48735, R140Q)
Construct: purchased BPS 71100-1
procedureText: Inhibitory activity of compounds on IDH2-R140Q enzyme in vitro (diaphorase/resazurin fluorescence)
Format: biochemical
protocolConditions: IDH2-R140Q, pre-incubated 16 h with enzyme and NADPH, reaction 1 h with α-ketoglutarate; read-out: R140Q IC50
measurementKind: pIC50
Bear in mind: pIC50 is minus log10 of a mol/L concentration; give just that figure.

* CC(C)Oc1nc(Nc2ccnc(C(F)(F)F)c2)nc(-c2cccc(C(F)(F)F)n2)n1 | 8.29
* FC1(F)CCN(c2nc(Nc3ccnc(C(F)(F)F)c3)nc(-c3cccc(C(F)(F)F)n3)n2)CC1 | 7.96

Moving on to another compound below.
GET /value?item= "O=S1(=O)CCN(c2nc(Nc3ccnc(C(F)(F)F)c3)nc(-c3cccc(C(F)(F)F)n3)n2)CN1" &field=pIC50 returns 7.74

====

Each item that follows carries a reported Intratumor 2-HG(%) after 10 days of administration.
Tested on: U87-MG (IDH2-R140Q) subcutaneous xenograft tumor
procedureText: Subcutaneous xenograft tumor caused by U87-MG (IDH2-R140Q) mutant cells in vivo: intratumor 2-HG
Design: species or system BALB/c nude mice
protocolConditions: 12.5 mg/kg, intragastric, 10 days, mean, relative to U87-MG (IDH2-R140Q) control group
Numeric only. Scale: %

Reference set, count: 3
• CC(C)(O)CNc1nc(Nc2ccnc(C(F)(F)F)c2)nc(-c2cccc(C(F)(F)F)n2)n1 [AG-221, reference compound] = 9
• OC1(C(F)(F)F)CN(c2nc(Nc3ccnc(C(F)(F)F)c3)nc(-c3cccc(C(F)(F)F)n3)n2)C1 [Example 34] = 24
• OC1CCCN(c2nc(Nc3ccnc(C(F)(F)F)c3)nc(-c3cccc(C(F)(F)F)n3)n2)C1 (stereo not shown) [Example 3] = 22

Consider now this further compound.
For the compound FC1(F)CCCN(c2nc(Nc3ccnc(C(F)(F)F)c3)nc(-c3cccc(C(F)(F)F)n3)n2)C1 [Example 2] , the measured Intratumor 2-HG(%) after 10 days of administration on U87-MG (IDH2-R140Q) subcutaneous xenograft tumor was 14

====

We begin with a simple list: items and their reported IC50.
assayTarget: IDH2-R140Q mutant enzyme (Homo sapiens, UniProt P48735, R140Q)
Construct: purchased BPS 71100-1
Sequence (P48735 40-452 R140Q): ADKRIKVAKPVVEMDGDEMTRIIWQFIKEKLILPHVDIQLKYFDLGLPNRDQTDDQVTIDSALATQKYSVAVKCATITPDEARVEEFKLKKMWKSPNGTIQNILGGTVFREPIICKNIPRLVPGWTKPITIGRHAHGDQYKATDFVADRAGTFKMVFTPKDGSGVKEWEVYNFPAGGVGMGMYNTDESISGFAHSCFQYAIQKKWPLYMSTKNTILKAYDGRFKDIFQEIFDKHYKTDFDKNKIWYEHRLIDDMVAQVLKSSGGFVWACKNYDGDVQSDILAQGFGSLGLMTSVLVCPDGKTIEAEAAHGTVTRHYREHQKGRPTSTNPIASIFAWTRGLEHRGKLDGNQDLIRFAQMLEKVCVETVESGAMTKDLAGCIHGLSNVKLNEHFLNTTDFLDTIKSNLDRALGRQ
procedureText: Inhibitory activity of compounds on IDH2-R140Q enzyme in vitro (diaphorase/resazurin fluorescence)
Format: biochemical
protocolConditions: IDH2-R140Q, pre-incubated 16 h with enzyme and NADPH, reaction 1 h with α-ketoglutarate; read-out: R140Q IC50
# output: bare number, implied unit nM

Study these solved cases before continuing.
• CCN(CC(C)(C)O)c1nc(Nc2ccnc(C(F)(F)F)c2)nc(-c2cccc(C(F)(F)F)n2)n1 = 21.3
• CC(C)(O)CCc1nc(Nc2ccnc(C(F)(F)F)c2)nc(-c2cccc(C(F)(F)F)n2)n1 = 16.1

// next entry
Summary for this compound, "FC1CCN(c2nc(Nc3ccnc(C(F)(F)F)c3)nc(-c3cccc(C(F)(F)F)n3)n2)CC1" : IC50 is 14
